For each entry below, report its pIC50 value.
# System: MCF-7 (ER+, Her2−) human breast cancer cells
# test.name: MTT cell viability assay, MCF-7 cells
# Type: cell-based
# measurement.setup: MCF7, 24 h, read-out: IC50 on cell viability, MCF-7 (ER+, Her2−)
Value format note: pIC50 is -log10 of concentration (mol/L); just state the number.

*Q* Field request: pIC50 | item: C=C1C(=O)OC2CC3=C[C@@H](C/C(C)=C/C(OC(=O)CC(C)CC)[C@H]12)OC3=O (stereo partly shown)
*A* 5.59

*Q* Likewise for C=C1C(=O)OC2CC3=C[C@@H](C/C(C)=C/C(OC(=O)C(C)CCC)[C@H]12)OC3=O (stereo partly shown) ?
*A* 5.46

*Q* Likewise for C=C1C(=O)OC2CC3=C[C@@H](C/C(C)=C/C(OC(=O)CC(C)C)[C@H]12)OC3=O (stereo partly shown) ?
*A* 5.47

*Q* Likewise for C=C1C(=O)OC2CC3=C[C@@H](C/C(C)=C/C(OC(C)=O)[C@H]12)OC3=O (stereo partly shown) ?
*A* 5.17

###

# Tested on: A2058 (BRAF mutation)
# test.name: MTT cell viability assay, A2058 melanoma
# Assay type: cell-based, human
# measurement.setup: Homo sapiens, A2058, 24 h
# Protocol: Normal or cancer cells (2×10^3 to 1×10^4 cells/well) were seeded in 96-well plate for overnight and treated with different compounds for 24 h to 72 h. Cells growth were determined by MTT-based colorimetric assays according to. Viability of the test cells treated with vehicle (0.5% DMSO) only was defined as 100% viable. Survival of cells after treatment with DETDs was calculated using the following formula: viable cell number (%)=OD570 (treated cell culture)/OD570 (vehicle control)×100. […]
For each entry below, report its IC50 value.
Numbers only here, please. The scale is µM.

*Q* Field request: IC50 | item: C=C1C(=O)OC2CC3=C[C@@H](C/C(C)=C/[C@H](OC(=O)Cc4cccc5ccccc45)[C@H]12)OC3=O (stereo partly shown) [DETD-62]
*A* 8.7

*Q* Likewise for C=C1C(=O)OC2CC3=C[C@@H](C/C(C)=C/C(OC(=O)Cc4ccccc4)[C@H]12)OC3=O (stereo partly shown) [DETD-43] ?
*A* 8.7

*Q* Likewise for C=C1C(=O)OC2CC3=C[C@@H](C/C(C)=C/C(OC(=O)c4ccc(Br)cc4)[C@H]12)OC3=O (stereo partly shown) [DETD-34] ?
*A* 4.4

*Q* Likewise for C=C1C(=O)OC2CC3=C[C@@H](C/C(C)=C/C(OC(=O)[C@@H](C)c4ccc5cc(OC)ccc5c4)[C@H]12)OC3=O (stereo partly shown) [DETD-53] ?
*A* 5.5

*Q* Likewise for C=C1C(=O)OC2CC3=C[C@@H](C/C(C)=C/C(OC(=O)Cc4ccc5cc(OC)ccc5c4)[C@H]12)OC3=O (stereo partly shown) [DETD-46] ?
*A* 5

*Q* Likewise for C=C1C(=O)OC2CC3=C[C@@H](C/C(C)=C/[C@@H](OC(=O)Cc4coc5ccccc45)[C@H]12)OC3=O (stereo partly shown) [DETD-59] ?
*A* 6

*Q* Likewise for C=C1C(=O)OC2CC3=C[C@@H](C/C(C)=C/C(OC(=O)c4cccs4)[C@H]12)OC3=O (stereo partly shown) [DETD-30] ?
*A* 5.2
